Data provenance: paper PMC6321168

Parameter concentration at 6 h: see the listing below.
Assay: Urinary excretion study in rats after oral NS, SF or CNS (LC–MS/MS)
Format: in vivo
Details: male, Sprague Dawley, rat, urine, oral, oral NS 60 mg/kg, 6 h
Number only, in ng/mL; omit the unit.

# input Specify reported concentration at 6 h for the compound shown: CC(C)=CCC[C@](C)(O[C@@H]1O[C@H](CO)[C@@H](O)[C@H](O)[C@H]1O)[C@H]1CC[C@]2(C)[C@@H]1[C@H](O)C[C@@H]1[C@@]3(C)CC[C@H](O)C(C)(C)[C@@H]3[C@@H](O[C@@H]3O[C@H](CO)[C@@H](O)[C@H](O)[C@H]3O)C[C@]12C [ginsenoside Rg1]
# output 1440

# input Specify reported concentration at 6 h for the compound shown: CC(C)=CCC[C@](C)(O[C@@H]1O[C@H](CO)[C@@H](O)[C@H](O)[C@H]1O)[C@H]1CC[C@]2(C)[C@@H]1[C@H](O)C[C@@H]1[C@@]3(C)CC[C@H](O)C(C)(C)[C@@H]3[C@@H](O[C@@H]3O[C@H](CO)[C@@H](O)[C@H](O)[C@H]3O[C@@H]3O[C@@H](C)[C@H](O)[C@@H](O)[C@H]3O)C[C@]12C [ginsenoside Re]
# output 32

# input Specify reported concentration at 6 h for the compound shown: CC(C)=CCC[C@](C)(O[C@@H]1O[C@H](CO[C@@H]2O[C@H](CO)[C@@H](O)[C@H](O)[C@H]2O)[C@@H](O)[C@H](O)[C@H]1O)[C@H]1CC[C@]2(C)[C@@H]1[C@H](O)C[C@@H]1[C@@]3(C)CC[C@H](O[C@@H]4O[C@H](CO)[C@@H](O)[C@H](O)[C@H]4O[C@@H]4O[C@H](CO)[C@@H](O)[C@H](O)[C@H]4O)C(C)(C)[C@@H]3CC[C@]12C [ginsenoside Rb1]
# output 140

# input Specify reported concentration at 6 h for the compound shown: CC(C)=CCC[C@](C)(O[C@@H]1O[C@H](CO)[C@@H](O)[C@H](O)[C@H]1O)[C@H]1CC[C@]2(C)[C@@H]1[C@H](O)C[C@@H]1[C@@]3(C)CC[C@H](O[C@@H]4O[C@H](CO)[C@@H](O)[C@H](O)[C@H]4O[C@@H]4O[C@H](CO)[C@@H](O)[C@H](O)[C@H]4O)C(C)(C)[C@@H]3CC[C@]12C [ginsenoside Rd]
# output 10

###

Assay: Urinary excretion study in rats after oral NS, SF or CNS (LC–MS/MS)
Assay type: in vivo
Details: rat urine, oral NS 60 mg/kg, 96 h
MEASUREMENT_NAME: Excretion amount (µg)
Number only, in µg; omit the unit.

# input Specify reported Excretion amount for the compound shown: CC(C)=CCC[C@](C)(O[C@@H]1O[C@H](CO)[C@@H](O)[C@H](O)[C@H]1O)[C@H]1CC[C@]2(C)[C@@H]1[C@H](O)C[C@@H]1[C@@]3(C)CC[C@H](O)C(C)(C)[C@@H]3[C@@H](O[C@@H]3O[C@H](CO)[C@@H](O)[C@H](O)[C@H]3O[C@@H]3O[C@@H](C)[C@H](O)[C@@H](O)[C@H]3O)C[C@]12C [ginsenoside Re]
# output 0.005

###

Assay: Fecal excretion study in rats after oral NS, SF or CNS (LC–MS/MS)
Type: in vivo
Conditions: rat feces, oral NS 60 mg/kg, 48 h
Parameter Accumulative excretion amount: see the listing below.
Number only, in µg; omit the unit.

Would you please look over these solved cases?
- CC(C)=CCC[C@](C)(O[C@@H]1O[C@H](CO)[C@@H](O)[C@H](O)[C@H]1O)[C@H]1CC[C@]2(C)[C@@H]1[C@H](O)C[C@@H]1[C@@]3(C)CC[C@H](O)C(C)(C)[C@@H]3[C@@H](O[C@@H]3O[C@H](CO)[C@@H](O)[C@H](O)[C@H]3O[C@@H]3O[C@@H](C)[C@H](O)[C@@H](O)[C@H]3O)C[C@]12C [ginsenoside Re]: 37.268
- CC(C)=CCC[C@](C)(O[C@@H]1O[C@H](CO)[C@@H](O)[C@H](O)[C@H]1O)[C@H]1CC[C@]2(C)[C@@H]1[C@H](O)C[C@@H]1[C@@]3(C)CC[C@H](O[C@@H]4O[C@H](CO)[C@@H](O)[C@H](O)[C@H]4O[C@@H]4O[C@H](CO)[C@@H](O)[C@H](O)[C@H]4O)C(C)(C)[C@@H]3CC[C@]12C [ginsenoside Rd]: 55.154

// next entry
# input Specify reported Accumulative excretion amount for the compound shown: CC(C)=CCC[C@](C)(O[C@@H]1O[C@H](CO)[C@@H](O)[C@H](O)[C@H]1O)[C@H]1CC[C@]2(C)[C@@H]1[C@H](O)C[C@@H]1[C@@]3(C)CC[C@H](O)C(C)(C)[C@@H]3[C@@H](O[C@@H]3O[C@H](CO)[C@@H](O)[C@H](O)[C@H]3O)C[C@]12C [ginsenoside Rg1]
# output 131.700

###

Assay: Urinary excretion study in rats after oral NS, SF or CNS (LC–MS/MS)
Format: in vivo
Details: rat urine, oral CNS 110 mg/kg, 48 h
MEASUREMENT_NAME: Excretion amount (µg)
Number only, in µg; omit the unit.

• CC(C)=CCC[C@](C)(O[C@@H]1O[C@H](CO)[C@@H](O)[C@H](O)[C@H]1O)[C@H]1CC[C@]2(C)[C@@H]1[C@H](O)C[C@@H]1[C@@]3(C)CC[C@H](O)C(C)(C)[C@@H]3[C@@H](O[C@@H]3O[C@H](CO)[C@@H](O)[C@H](O)[C@H]3O)C[C@]12C [ginsenoside Rg1] = 0.301
• CC(C)=CCC[C@](C)(O[C@@H]1O[C@H](CO)[C@@H](O)[C@H](O)[C@H]1O)[C@H]1CC[C@]2(C)[C@@H]1[C@H](O)C[C@@H]1[C@@]3(C)CC[C@H](O)C(C)(C)[C@@H]3[C@@H](O[C@@H]3O[C@H](CO)[C@@H](O)[C@H](O)[C@H]3O[C@@H]3O[C@@H](C)[C@H](O)[C@@H](O)[C@H]3O)C[C@]12C [ginsenoside Re] = 0.03
• CC(C)=CCC[C@](C)(O[C@@H]1O[C@H](CO)[C@@H](O)[C@H](O)[C@H]1O)[C@H]1CC[C@]2(C)[C@@H]1[C@H](O)C[C@@H]1[C@@]3(C)CC[C@H](O[C@@H]4O[C@H](CO)[C@@H](O)[C@H](O)[C@H]4O[C@@H]4O[C@H](CO)[C@@H](O)[C@H](O)[C@H]4O)C(C)(C)[C@@H]3CC[C@]12C [ginsenoside Rd] = 0.021

// next entry
# input Specify reported Excretion amount for the compound shown: CC(C)=CCC[C@](C)(O[C@@H]1O[C@H](CO[C@@H]2O[C@H](CO)[C@@H](O)[C@H](O)[C@H]2O)[C@@H](O)[C@H](O)[C@H]1O)[C@H]1CC[C@]2(C)[C@@H]1[C@H](O)C[C@@H]1[C@@]3(C)CC[C@H](O[C@@H]4O[C@H](CO)[C@@H](O)[C@H](O)[C@H]4O[C@@H]4O[C@H](CO)[C@@H](O)[C@H](O)[C@H]4O)C(C)(C)[C@@H]3CC[C@]12C [ginsenoside Rb1]
# output 0.247

###

Test: Fecal excretion study in rats after oral NS, SF or CNS (LC–MS/MS)
Assay type: in vivo
Settings: rat feces, oral NS 60 mg/kg, 36 h
MEASUREMENT_NAME: Excretion amount (µg)
Number only, in µg; omit the unit.

• CC(C)=CCC[C@](C)(O[C@@H]1O[C@H](CO)[C@@H](O)[C@H](O)[C@H]1O)[C@H]1CC[C@]2(C)[C@@H]1[C@H](O)C[C@@H]1[C@@]3(C)CC[C@H](O)C(C)(C)[C@@H]3[C@@H](O[C@@H]3O[C@H](CO)[C@@H](O)[C@H](O)[C@H]3O)C[C@]12C [ginsenoside Rg1] = 28.977
• CC(C)=CCC[C@](C)(O[C@@H]1O[C@H](CO[C@@H]2O[C@H](CO)[C@@H](O)[C@H](O)[C@H]2O)[C@@H](O)[C@H](O)[C@H]1O)[C@H]1CC[C@]2(C)[C@@H]1[C@H](O)C[C@@H]1[C@@]3(C)CC[C@H](O[C@@H]4O[C@H](CO)[C@@H](O)[C@H](O)[C@H]4O[C@@H]4O[C@H](CO)[C@@H](O)[C@H](O)[C@H]4O)C(C)(C)[C@@H]3CC[C@]12C [ginsenoside Rb1] = 13.350
• CC(C)=CCC[C@](C)(O[C@@H]1O[C@H](CO)[C@@H](O)[C@H](O)[C@H]1O)[C@H]1CC[C@]2(C)[C@@H]1[C@H](O)C[C@@H]1[C@@]3(C)CC[C@H](O)C(C)(C)[C@@H]3[C@@H](O[C@@H]3O[C@H](CO)[C@@H](O)[C@H](O)[C@H]3O[C@@H]3O[C@@H](C)[C@H](O)[C@@H](O)[C@H]3O)C[C@]12C [ginsenoside Re] = 6.105

// next entry
# input Specify reported Excretion amount for the molecule shown: CC(C)=CCC[C@](C)(O[C@@H]1O[C@H](CO)[C@@H](O)[C@H](O)[C@H]1O)[C@H]1CC[C@]2(C)[C@@H]1[C@H](O)C[C@@H]1[C@@]3(C)CC[C@H](O[C@@H]4O[C@H](CO)[C@@H](O)[C@H](O)[C@H]4O[C@@H]4O[C@H](CO)[C@@H](O)[C@H](O)[C@H]4O)C(C)(C)[C@@H]3CC[C@]12C [ginsenoside Rd]
# output 7.290
